assay target: human CRF receptor I (Homo sapiens, UniProt P34998)
Construct: expressed in transfected cells; host or cells: CHO-K1
Sequence (P34998 24-415): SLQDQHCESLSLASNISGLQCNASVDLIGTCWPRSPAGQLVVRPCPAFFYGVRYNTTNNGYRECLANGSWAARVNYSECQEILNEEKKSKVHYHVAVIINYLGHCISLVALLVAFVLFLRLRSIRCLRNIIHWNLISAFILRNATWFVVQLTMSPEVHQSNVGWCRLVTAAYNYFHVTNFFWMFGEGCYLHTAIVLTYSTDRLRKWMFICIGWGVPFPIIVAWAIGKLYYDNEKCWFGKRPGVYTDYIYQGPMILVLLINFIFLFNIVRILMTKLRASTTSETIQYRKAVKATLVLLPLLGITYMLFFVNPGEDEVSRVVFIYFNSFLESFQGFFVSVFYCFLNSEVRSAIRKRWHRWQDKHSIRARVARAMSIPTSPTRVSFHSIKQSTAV
experiment summary: Receptor antagonistic activity (cyclic AMP assay)
Assay type: cell-based
condition set: accumulated cyclic AMP, human/rat CRF stimulation, cells expressing human CRF receptor I, 37° C. 15 minutes
parameter measured: IC50 (nM)

| compound | IC50 [nM] |
| --- | --- |
| CCC(CC)c1cc(C)n2nc(-c3ccc(OC(F)(F)F)cc3Cl)n(C)c(=O)c12 | 1.8 |
| CCC(CC)c1cc(C)n2nc(-c3ncc(OC)cc3Cl)n(C)c(=O)c12 | 5.8 |
| CCC(CC)c1cc(C)n2nc(-c3c(C)nc(N(C)C)nc3C)n(C)c(=O)c12 | 9.4 |

P: CCCC(C)c1cc(C)n2nc(-c3ccc(SC)cc3Cl)n(C)c(=O)c12 (stereo not shown)
Q: CCC(CC)c1cc(C)n2nc(-c3ccc(OC)cc3C)n(CC(N)=O)c(=O)c12
R: CCn1c(-c2ccc(SC)cc2C)nn2c(C)cc(C(C)C)c2c1=O
S: CCC(CC)c1cc(C)n2nc(-c3sc(N(C)C)nc3Cl)n(C)c(=O)c12
Please list the entries, largest IC50 first. # output: labels, in the requested order Q, R, P, S

Reference source for all entries: patent US8420810B2
